target: cholera toxin B subunit (CTB); ligand GD1b (Vibrio cholerae serotype O1, UniProt P01556); format: binding
Sequence (P01556 22-124 limits assumed): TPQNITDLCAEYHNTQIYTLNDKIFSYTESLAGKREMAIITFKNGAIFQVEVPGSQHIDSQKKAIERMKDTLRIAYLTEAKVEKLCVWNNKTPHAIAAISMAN
Where a SMILES comes first, the peptide text is derived from it.
MEASURED_METRIC: Inhibition percent at IC50 GM1: GD1b (%)

COMPOUND	NUMERIC_VALUE
CC(C)C[C@H](NC(=O)[C@H](CC(N)=O)NC(=O)[C@@H]1CCCN1C(=O)[C@H](Cc1ccccc1)NC(=O)[C@H](Cc1c[nH]c2ccccc12)NC(=O)[C@@H](NC(=O)[C@H](CCCCN)NC(=O)[C@H](Cc1c[nH]c2ccccc12)NC(=O)[C@H](CO)NC(=O)[C@@H](N)C(C)C)[C@@H](C)O)C(=O)N[C@@H](C)C(=O)N[C@H](C(=O)O)C(C)C [PGM1-1, VSWKTWFPNLAV] (H-VSWKTWFPNLAV-OH; N-terminus and C-terminus assumed)	39.9
CSCC[C@H](NC(=O)[C@H](CO)NC(=O)[C@@H]1CCCN1C(=O)[C@H](Cc1ccccc1)NC(=O)[C@H](Cc1c[nH]c2ccccc12)NC(=O)[C@H](CCCCN)NC(=O)[C@H](Cc1c[nH]cn1)NC(=O)[C@H](Cc1ccccc1)NC(=O)[C@@H]1CCCN1C(=O)[C@H](CO)NC(=O)[C@@H](N)Cc1ccc(O)cc1)C(=O)N[C@@H](Cc1c[nH]cn1)C(=O)O [PGM1-2, YSPFHKWFPSMH] (H-YSPFHKWFPSMH-OH; N-terminus and C-terminus assumed)	21.9
CC[C@H](C)[C@H](NC(=O)[C@@H](N)CCC(N)=O)C(=O)N[C@@H](CC(N)=O)C(=O)N[C@H](C(=O)N[C@@H](C)C(=O)N[C@@H](CCCCN)C(=O)N[C@@H](Cc1c[nH]c2ccccc12)C(=O)N[C@@H](Cc1c[nH]c2ccccc12)C(=O)N[C@@H](CCCCN)C(=O)N[C@H](C(=O)N[C@@H](Cc1c[nH]cn1)C(=O)N[C@@H](Cc1ccccc1)C(=O)O)[C@@H](C)O)[C@@H](C)O [PGM1-5, QINTAKWWKTHF] (H-QINTAKWWKTHF-OH)	39.8
CC(C)C[C@H](NC(=O)[C@H](CCCCN)NC(=O)[C@@H](NC(=O)[C@H](Cc1ccccc1)NC(=O)[C@H](Cc1c[nH]c2ccccc12)NC(=O)[C@H](C)NC(=O)[C@@H]1CCCN1C(=O)[C@@H](N)Cc1ccccc1)[C@@H](C)O)C(=O)N[C@@H](Cc1ccc(O)cc1)C(=O)N1CCC[C@H]1C(=O)N[C@@H](CCCNC(=N)N)C(=O)N[C@H](C(=O)O)[C@@H](C)O [PGM1-4, FPAWFTKLYPRT] (H-FPAWFTKLYPRT-OH)	18.9

###

biological target: cholera toxin B subunit (CTB); ligand GM1 (Vibrio cholerae serotype O1); format: binding
Sequence (P01556 22-124 limits assumed): as above
Where a SMILES comes first, the peptide text is derived from it.

MOLECULE	TARGET_ENTITY	IC50 GM1, pmol/mL
CC(C)C[C@H](NC(=O)[C@H](CC(N)=O)NC(=O)[C@@H]1CCCN1C(=O)[C@H](Cc1ccccc1)NC(=O)[C@H](Cc1c[nH]c2ccccc12)NC(=O)[C@@H](NC(=O)[C@H](CCCCN)NC(=O)[C@H](Cc1c[nH]c2ccccc12)NC(=O)[C@H](CO)NC(=O)[C@@H](N)C(C)C)[C@@H](C)O)C(=O)N[C@@H](C)C(=O)N[C@H](C(=O)O)C(C)C [PGM1-1, VSWKTWFPNLAV] (H-VSWKTWFPNLAV-OH; N-terminus and C-terminus assumed)	cholera toxin B subunit (CTB); ligand GM1 (Vibrio cholerae serotype O1)	38.0
